Ref: PubChem BioAssay AID651813

ASSAY_SYSTEM: DNA dC->dU-editing enzyme APOBEC-3G (Homo sapiens)
PROTOCOL_SUMMARY: qHTS for inhibitors of Vif-A3G interactions: Cherry picks counterscreen;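 note: hits raise yellow fluorescence by blocking Vif-driven A3G-eYFP degradation; nearly all actives have a fitted effect of over 70% in size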;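 for max response: max response given as percent of control signal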
APPLIED_CONDITIONS: HeLa A3G-eYFP + Vif, eYFP fluorescence, 24 h
Description: The recent discovery and characterization of host restriction factors, which provide a potent defense to invading retroviruses, has provided new targets for antiviral drug development. […] In the presence of an inhibitor, it is expected that Vif will be unable to degrade A3G-eYFP and/or A3F-eYFP, resulting in an increase in yellow fluorescence. […]
The whole screen tested about 2,100 compounds, of which about 1,100 (52%) were called active. Another 27% or so got no clear call; they are omitted. The set was probably picked from earlier hits. Some of the results follow.
Threshold check on max response: at or above -10% gives 1.0, strictly below gives 0.0.

Cn1c(=O)c2c(nc(NC3CCCC3)n2C)n(C)c1=O | 1.0
O=C(COc1ccccc1-c1ccccc1)NN=C1CCCC1 | 0.0
COc1ccccc1/C=N/NC(=S)Nc1cccnc1 | 0.0
CCOc1cc(C)nc(NCc2ccccc2)n1 | 0.0
COc1cc(/C=C(/C#N)c2nc3ccccc3[nH]2)ccc1OC(=O)c1ccco1 | 1.0
S=c1[nH]cnc2sc(-c3ccccc3)cc12 | 1.0
CCCn1c(C2CCCN2c2nc(-c3cccc(Br)c3)cs2)nc2ccccc21 (configuration not stated) | 1.0
CCC(C)Sc1cccc(-c2nc3cc(C)ccn3c2NC2CCCCC2)c1 (configuration not stated) | 1.0
CCCC1=[N+](CC(=O)c2ccc(Br)cc2)CCn2cccc21 | 0.0
COc1ccc(-c2nnc(NC(=O)c3ccc([N+](=O)[O-])o3)o2)c(OC)c1 | 0.0

Task: Has `Cn1c(=O)c(N)c2c3c(c(Br)ccc31)C(=O)c1ccccc1-2` a recorded max response greater than or equal to -10%?
Output: 1.0

====

ASSAY_SYSTEM: DNA dC->dU-editing enzyme APOBEC-3G (Homo sapiens) (UniProt Q9HC16)
Sequence (Q9HC16 whole entry, looked up): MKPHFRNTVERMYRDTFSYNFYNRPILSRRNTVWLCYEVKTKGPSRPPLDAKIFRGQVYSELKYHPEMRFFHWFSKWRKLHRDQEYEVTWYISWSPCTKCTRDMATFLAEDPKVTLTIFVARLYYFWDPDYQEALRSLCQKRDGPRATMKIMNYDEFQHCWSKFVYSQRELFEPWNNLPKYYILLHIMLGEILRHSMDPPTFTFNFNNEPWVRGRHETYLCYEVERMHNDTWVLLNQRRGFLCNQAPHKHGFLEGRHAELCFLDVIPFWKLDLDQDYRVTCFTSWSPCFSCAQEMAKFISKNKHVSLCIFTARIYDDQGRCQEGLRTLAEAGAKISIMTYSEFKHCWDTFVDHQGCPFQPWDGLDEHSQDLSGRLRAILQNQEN
PROTOCOL_SUMMARY: qHTS for inhibitors of Vif-A3G interactions: Cherry picks counterscreen;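 note: hits raise yellow fluorescence by blocking Vif-driven A3G-eYFP degradation; nearly all actives have a fitted effect of over 70% in size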;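 for max response: max response given as percent of control signal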
APPLIED_CONDITIONS: HeLa A3G-eYFP + Vif, eYFP fluorescence, 24 h
Excerpt: The recent discovery and characterization of host restriction factors, which provide a potent defense to invading retroviruses, has provided new targets for antiviral drug development. […] In the presence of an inhibitor, it is expected that Vif will be unable to degrade A3G-eYFP and/or A3F-eYFP, resulting in an increase in yellow fluorescence. […]
The campaign covered roughly 2,100 compounds. About 1,100 (52%) were called active. About 27% were inconclusive and are not listed. So high a share suggests a set chosen from earlier hits. The list shows a part of the results.
MEASURED_ATTRIBUTE: max response (%)
Give bare numbers, in %.

Cc1ccc2c(Cl)c(C)c(N3CCCC3)nc2n1 | -28.8
COc1cc(CNCCSc2nnnn2C)ccc1OCc1c(F)cccc1Cl | 28.9
N#C/C=C/N1CCN(C(=O)c2ccco2)CC1 | -14.7

Each compound below has a reported value. Please supply its max response.
1. COC(=O)c1cc(Nc2nc3ccccc3nc2NS(=O)(=O)c2ccc(C)cc2)ccc1Cl
2. CCCN1C(=O)S/C(=C/c2ccc(N3CCOCC3)o2)C1=O

Output:
1. -22.7
2. 50.5

====

ASSAY_SYSTEM: DNA dC->dU-editing enzyme APOBEC-3G (Homo sapiens)
PROTOCOL_SUMMARY: qHTS for inhibitors of Vif-A3G interactions: Cherry picks counterscreen;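 note: hits raise yellow fluorescence by blocking Vif-driven A3G-eYFP degradation; nearly all actives have a fitted effect of over 70% in size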; note: potency is the fitted concentration of half-maximal effect
APPLIED_CONDITIONS: HeLa A3G-eYFP + Vif, eYFP fluorescence, 24 h
Text: The recent discovery and characterization of host restriction factors, which provide a potent defense to invading retroviruses, has provided new targets for antiviral drug development. […] In the presence of an inhibitor, it is expected that Vif will be unable to degrade A3G-eYFP and/or A3F-eYFP, resulting in an increase in yellow fluorescence. […]
The campaign covered roughly 2,100 compounds. About 1,100 (52%) were called active. Inconclusive results (about 27%) are left out. So high a share suggests a set chosen from earlier hits. The list shows a part of the results.
MEASURED_ATTRIBUTE: Potency

// input: 2 molecules below; output: Potency for each
1. CCN(CC)c1ccc(/C=C/C2=C3C=CC=CC3NC=C2)cc1 (configuration not stated)
2. O=C(O)c1cccc(-c2ccc(/C=N/Nc3ccc([N+](=O)[O-])cc3)o2)c1

Output:
["20.6 µM (active)", "14.6 µM (active)"]

Batch request: Potency per item, same order as input.
1. COc1ccc(N/C=C/C(=O)c2cc(OC)c(OC)c(OC)c2)cc1
2. Cc1cc([N+](=O)[O-])ccc1-c1ccc(/C=N/NC(=O)c2ccc(Br)o2)o1
3. CCOc1ccccc1C(=O)Nc1ccsc1C(=O)OC
4. N#CCc1ccc(NC(=O)/C=C/c2ccc([N+](=O)[O-])o2)cc1
5. Cc1ccc(S(=O)(=O)Nc2nc3ccccc3nc2Nc2cccc(S(=O)(=O)N3CCCC3)c2)cc1
6. COc1cc(/C=C(/C#N)c2nc3ccccc3[nH]2)ccc1OCC(=O)Nc1ccccc1C(C)C
7. COc1ccc(N/C=C\C(=O)c2ccc(Br)cc2)cc1OC

Output:
1. 0.886 µM (active)
2. 20.6 µM (active)
3. 2.5 µM (active)
4. 13 µM (active)
5. 23.1 µM (active)
6. 13 µM (active)
7. 18.4 µM (active)

Please report Potency for every entry that follows.
1. CCN1CCc2c(sc(NC(=O)c3ccc(S(=O)(=O)N(CC)c4ccccc4)cc3)c2C(N)=O)C1
2. CC(C)n1cc(/C=C/c2cc[n+](C)cc2)c2ccccc21
3. Cc1cc(C(=O)N/N=C/c2ccc(C)o2)c2ccccc2n1
4. CC[n+]1c(/C=C/Nc2ccccc2)oc2ccc(OC)cc21

Output:
1: 5.59 µM (active); 2: 3.53 µM (active); 3: 4.98 µM (active); 4: 14.6 µM (active)

// for each molecule below, give its Potency
1. O=S(=O)(Nc1nc2ccccc2nc1Nc1cccc(S(=O)(=O)N2CCCCC2)c1)c1ccccc1
2. Cc1cc(N/N=C/c2ccc([N+](=O)[O-])o2)nc2ccccc12
3. CC(C)n1c(O)c(N=Nc2ccc(Cl)nn2)c2ccccc21
4. CC[n+]1c(/C=C/N(C)c2ccccc2)oc2ccc(F)cc21
5. CCN(CC)c1nc2ccccc2nc1C(C#N)C(=O)NCCc1ccccc1 (configuration not stated)
6. CCN(C)c1ccc(/C=N\n2nnnc2N)cc1
7. CCn1cc(/C=C/c2cc[n+](C)cc2)c2ccccc21
8. CCOC(=O)c1sc2cc([N+](=O)[O-])cc(SCC(C)C)c2c1N

Output:
20.6 µM (active)
23.1 µM (active)
18.4 µM (active)
14 µM (active)
13 µM (active)
5.59 µM (active)
1.77 µM (active)
2.31 µM (active)

Consider the following items and state reported Potency for each.
1. CN(C)c1ccc(/C=C/c2ccncc2)cc1
2. NN=C1c2ccccc2C(=O)C1C(=O)C(c1ccccc1)c1ccccc1 (configuration not stated)
3. C=CCn1cc(/C=C/c2cc[n+](C)cc2)c2ccccc21
4. CCOc1ccc(S(=O)(=O)N(CC(=O)N/N=C/c2ccc(-c3ccc([N+](=O)[O-])cc3)o2)c2ccccc2)cc1
5. Cc1ccc(C=NNC(=O)c2cc(-c3cccnc3)nc3ccccc23)o1
6. CCCCOc1ccc(-c2cc(C(F)(F)F)c(C#N)c(SCC(=O)O)n2)cc1
7. O=C1C=CC(O)(c2cc(=O)c3c(O)cc(O)cc3o2)C=C1
8. COC(=O)c1sc2cc([N+](=O)[O-])cc(SCC(C)C)c2c1N

Output:
1: 2.59 µM (active); 2: 15.8 µM (active); 3: 0.886 µM (active); 4: 11.2 µM (active); 5: 15.8 µM (active); 6: 23.1 µM (active); 7: 7.9 µM (active); 8: 8.2 µM (active)

Value sought for every listed molecule: Potency.
1. CCN(CC)c1ccc(/C=C/c2ccccn2)cc1
2. CC1(C)Cc2ccccc2C2CC(O)C(=O)N21 (configuration not stated)
3. CC1=C(C(=O)Nc2cccc(F)c2)C(c2ccsc2)C2=C(CC(C)(C)CC2=O)N1 (configuration not stated)

Output:
16.4 µM (active)
20.6 µM (active)
1.98 µM (active)

====

ASSAY_SYSTEM: DNA dC->dU-editing enzyme APOBEC-3G (Homo sapiens)
PROTOCOL_SUMMARY: qHTS for inhibitors of Vif-A3G interactions: Cherry picks counterscreen;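 note: hits raise yellow fluorescence by blocking Vif-driven A3G-eYFP degradation; nearly all actives have a fitted effect of over 70% in size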; note: potency is the fitted concentration of half-maximal effect
APPLIED_CONDITIONS: HeLa A3G-eYFP + Vif (tagged APOBEC3G with the HIV-1 protein that degrades it), eYFP fluorescence, 24 h
Out of some 2,100 compounds screened, about 1,100 (52%) were called active. Another 27% or so got no clear call; they are omitted. So high a share suggests a set chosen from earlier hits. The list shows a part of the results.
MEASURED_ATTRIBUTE: Potency

Solved entries (count: 10):
COc1cccc2sc(Nc3nc(-c4cc5ccccc5oc4=O)cs3)nc12 | 3.96 µM (active)
CSc1nsc(/C=C/Nc2ccc(F)cc2)c1C#N | 16.4 µM (active)
CC(=O)N1CCc2nc3sc(C(=O)c4ccc(F)cc4)c(N)c3c(C(F)(F)F)c2C1 | 18.4 µM (active)
Cc1cc2nc3c(=O)n(C4CCCCC4)c(=O)[nH]c3nc2cc1N | 7.31 µM (active)
CCn1c(/C=C/c2ccc([N+](=O)[O-])o2)nc2ccccc2c1=O | 20.6 µM (active)
C/C(CC(=O)NCc1ccc(Cl)cc1)=N\NC(=O)COc1ccc(C)cc1Br | 14 µM (active)
O=C(NCc1ccccc1)C(=O)NCC1COc2ccccc2O1 (configuration not stated) | 12.5 µM (active)
CN(C)c1ccc(/C=C/c2nc3ccccc3c(=O)n2CCO)cc1 | 20.6 µM (active)
CCN(CC)C(=O)c1ccc(/C=C/c2c[nH]c3ccccc23)[n+](C)c1 | 20.6 µM (active)
Cn1cc(/C=C/c2ccnc3ccccc23)c2ccccc21 | 20.6 µM (active)

Value sought for every listed compound: Potency.
1. Cc1ccc(S(=O)(=O)CCSc2nc(C)cc(C(F)(F)F)c2C#N)cc1
2. CSc1nc2ccccc2cc1/C=C(\C#N)c1ccccc1
3. COc1cccc(/C(O)=C/c2nc3ccc(C(=O)NCCc4cccc(C)c4)cc3[nH]c2=O)c1
4. COc1ccccc1NC(=O)c1oc2ccccc2c1NC(=O)c1cccc(OC)c1OC
5. Cc1cc(C)n2nc(C(=O)N/N=C/c3c4ccccc4cc4ccccc34)nc2n1

Output:
["17.7 µM (active)", "6.27 µM (active)", "13 µM (active)", "5.8 µM (active)", "15.8 µM (active)"]

Batch request: Potency for each of the following compounds.
1. CCSC1=NSC2=NC(=O)/C(=C\c3coc4ccccc4c3=O)C(=N)N12
2. C/C(=N/Nc1ccc([N+](=O)[O-])cc1)c1c[nH]c2ccccc12
3. Fc1cccc(Cc2c(-c3ccco3)nc3ccc(Br)cn23)c1
4. COc1ccc(NC(=O)C2(C)Cc3c(-c4cccc(C(N)=O)c4)ccnc3O2)cc1 (configuration not stated)
5. COc1ccc(-n2c(O)c(/C=N/NS(=O)(=O)c3cccc([N+](=O)[O-])c3)c3ccccc3c2=O)cc1OC
6. CCCCn1c(N)c(N(CC(C)C)C(=O)Cc2ccc(S(=O)(=O)N3CCOCC3)s2)c(=O)[nH]c1=O
7. COc1ccc(/C=N/NC(=O)c2cc3c(OC)ccc(OC)c3[nH]2)cc1O

Output:
["16.4 µM (active)", "18.4 µM (active)", "14 µM (active)", "4.44 µM (active)", "12.5 µM (active)", "18.4 µM (active)", "4.44 µM (active)"]

Hey, quick one: what's Potency for each of these?
1. COc1ccccc1NS(=O)(=O)c1cc([N+](=O)[O-])ccc1N/N=C/c1c[nH]c2ccccc12
2. CCN1C(=O)/C(=C/C=C2\N(CC)c3cc(S(=O)(=O)N(C)C)ccc3N2c2ccccc2)SC1=S
3. CN(C)c1ccc(/C=C/c2cc(N(C)C)nc3ccccc23)cc1

Output:
["9.2 µM (active)", "1.12 µM (active)", "6.51 µM (active)"]
